molecular target: TWEAKR (TNFRSF12A, FN14), human, on tumor cell lines (human, UniProt Q9NP84 28-129); assay: cell-based or functional assay
Assign Criterion met whenever Fold induction of Caspase 3/7, 786-O cells, 100 ug/ml does not fall below 2 fold; assign Criterion not met whenever it does.

{"Binder": "TPP-2093 (antibody, human IgG1, kappa, V domains shown, Human IgG1) VH: EVQLLESGGGLVQPGGSLRLSCAASGFTFSPYPMMWVRQAPGKGLEWVSYISPSGGSTHYADSVKGRFTISRDNSKNTLYLQMNSLRAEDTAVYYCARGGDTYFDYFDYWGQGTLVTVSS VL: DIQMTQSPSSLSASVGDRVTITCRASQSISSYLNWYQQKPGKAPKLLIYQASSLQSGVPSRFSGSGSGTDFTLTISSLQPEDFATYYCQQSYTSPFITFGQGTKVEIKR", "Answer label": "Criterion not met"}

Does Fold induction of Caspase 3/7, 786-O cells, 100 ug/ml meet or surpass 2 fold for TPP-1858 (antibody, human IgG1, kappa, V domains shown, Human IgG1) VH: EVQLLESGGGLVQPGGSLRLSCAASGFTFSPYPMMWVRQAPGKGLEWVSYISPSGGKTHYADSVKGRFTISRDNSKNTLYLQMNSLRAEDTAVYYCARGGDTYFDYFDYWGQGTLVTVSS VL: DIQMTQSPATLSASVGDRVTITCRASQSISSYLNWYQQKPGKAPKLLIYNASSLQSGVPSRFSGSGSGTDFTLTISSLQPEDFATYYCQQSYTSPFITFGPGTKVEIKR ?
Criterion met

Does Fold induction of Caspase 3/7, 786-O cells, 100 ug/ml meet or surpass 2 fold for TPP-1854 (antibody, human IgG1, kappa, V domains shown, Human IgG1) VH: EVQLLESGGGLVQPGGSLRLSCAASGFTFSPYPMIWVRQAPGKGLEWVSYISPSGGKTHYADSVKGRFTISRDNSKNTLYLQMNSLRAEDTAVYYCARGGDTYFDYFDYWGQGTLVTVSS VL: DIQMTQSPATLSASVGDRVTITCRASQSISGYLNWYQQKPGKAPKLLIYNASSLQSGVPSRFSGSGSGTDFTLTISSLQPEDFATYYCQQSYTSPFITFGPGTKVEIKR ?
Criterion met

Does Fold induction of Caspase 3/7, 786-O cells, 100 ug/ml meet or surpass 2 fold for P4A8(TPP-1324) (antibody, human IgG1, kappa, V domains shown, Human IgG1; variable domains from WO2009/140177 with constant region added) VH: QVQLVQSGAEVKKPGASVKVSCKGSGYTFTDYGMHWVRQAPGQGLEWMGVISTYNGYTNYNQKFKGRVTMTVDKSTSTAYMELRSLRSDDTAVYYCARAYYGNLYYAMDYWGQGTLVTVSS VL: DIVLTQSPASLAVSLGQRATISCRASKSVSTSSYSYMHWYQQKPGQPPKLLIKYASNLESGVPARFSGSGSGTDFSLNIHPMEEDDTAMYFCQHSRELPFTFGGGTKLEIKR ?
Criterion not met

Does Fold induction of Caspase 3/7, 786-O cells, 100 ug/ml meet or surpass 2 fold for TPP-1857 (antibody, human IgG1, kappa, V domains shown, Human IgG1) VH: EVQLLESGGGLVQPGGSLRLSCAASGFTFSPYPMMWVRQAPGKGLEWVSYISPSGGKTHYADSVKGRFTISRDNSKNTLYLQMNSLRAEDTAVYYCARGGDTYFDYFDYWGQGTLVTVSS VL: DIQMTQSPATLSASVGDRVTITCRASQSISGYLNWYQQKPGKAPKLLIYNASSLQSGVPSRFSGSGSGTDFTLTISSLQPEDFATYYCQQSYTSPGITFGPGTKVEIKR ?
Criterion not met

Does Fold induction of Caspase 3/7, 786-O cells, 100 ug/ml meet or surpass 2 fold for TPP-1853 (antibody, human IgG1, kappa, V domains shown, Human IgG1) VH: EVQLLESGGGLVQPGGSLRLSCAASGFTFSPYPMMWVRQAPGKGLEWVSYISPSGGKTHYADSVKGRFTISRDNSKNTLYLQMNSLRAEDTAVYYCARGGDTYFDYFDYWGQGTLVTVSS VL: DIQMTQSPATLSASVGDRVTITCRASQSISSYLNWYQQKPGKAPKLLIYNASSLQSGVPSRFSGSGSGTDFTLTISSLQPEDFATYYCQQSYTSPGITFGPGTKVEIKR ?
Criterion not met

The measured values listed here are drawn from patent US20160237160A1.
